Tested on: HepG2
Test: cytotoxicity call (relative viability < 0.9)
Conditions: 10 µM
In all, about 39,000 compounds went through this assay and about 3,300 (8.5%) were called active. Only a selection was taken, and actives are over-represented in it overall.
endpoint name: cytotoxicity call

# example entries with known answers
>>> print(df.to_string())
                                 smiles_str      endpoint_name  assay_result
0  COCC#Cc1cnc2c(c1)C(=O)N([C@@H](C)CO)C[C@@H](C)[C@H](CN(C)C(=O)CCN1CCCCC1)O2  cytotoxicity call      inactive
1  C[C@H](CO)N1C[C@H](C)[C@H](CN(C)Cc2ccc(C(F)(F)F)cc2)OCCCC[C@H](C)Oc2ccc(NC(=O)CCC(F)(F)F)cc2C1=O  cytotoxicity call      inactive
2  C[C@@H]1CCCCO[C@@H](CN(C)Cc2ccc(C(F)(F)F)cc2)[C@H](C)CN([C@@H](C)CO)C(=O)c2cc(NC(=O)CCC(F)(F)F)ccc2O1  cytotoxicity call        active
3  C[C@@H]1CN([C@H](C)CO)C(=O)c2cc(NC(=O)CCC(F)(F)F)ccc2O[C@@H](C)CCCCO[C@H]1CN(C)Cc1ccc(C(=O)O)cc1  cytotoxicity call      inactive
4  C[C@@H]1CCCCO[C@@H](CN(C)Cc2ccc(C(F)(F)F)cc2)[C@H](C)CN([C@H](C)CO)C(=O)c2cc(NC(=O)CCC(F)(F)F)ccc2O1  cytotoxicity call      inactive

Data request: What does the data say about its cytotoxicity call? Entry: C[C@@H]1CCCCO[C@@H](CN(C)Cc2ccc(C(=O)O)cc2)[C@H](C)CN([C@H](C)CO)C(=O)c2cc(NC(=O)CCC(F)(F)F)ccc2O1
Data returned: active
